The measurements presented in this section are drawn from patent US20230049752A1.

target-entity: human Claudin-6 (CLDN6) (human) (UniProt P56747)
test: FACS, limiting dilution, ARK2 cells
experimental-readout: FACS signal at 1.6 nM
The response must contain the number and no unit.

// solved cases for FACS signal at 1.6 nM follow
# binder, FACS signal at 1.6 nM
measured = [
    ("AB3-7 (antibody, V domains shown, humanized; also called AB23; humanized AB3-7) VH: EVQLLESGGGLVQPGGSMRLSCAASGFTFSNYWMNWVRQAPGKGLEWVAQIRLKSDNYATHYADSVKGRFTISRDDSKNTVYLQMNSLRAEDTGVYYCNDGPPSGSWGQGTLLTVSS VL: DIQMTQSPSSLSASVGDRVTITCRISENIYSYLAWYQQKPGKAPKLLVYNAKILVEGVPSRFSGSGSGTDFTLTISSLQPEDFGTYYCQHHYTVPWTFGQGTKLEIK", 537),
    ("AB1-11 (antibody, V domains shown, humanized; also called humanized AB1-11; HU-11) VH: QVQLVQSGAEVKKPGASVKMSCKASGYTFTTYTMHWVRQAPGQGLEWIGFINPSSGYTDYAQKFQGRVTLTADKSTSTVYMELSSLRSEDTAVYYCANGDYYVAYWGQGTLVTVSS VL: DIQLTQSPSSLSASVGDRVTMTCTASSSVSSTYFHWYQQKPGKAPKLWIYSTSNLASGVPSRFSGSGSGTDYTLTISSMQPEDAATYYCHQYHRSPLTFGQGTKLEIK", 639),
]

### Prompt Given the binder AB S8 (antibody, V domains shown) VH: QVQLVQSGAEVKKPGASVKMSCKASGYTFTTYTMHWVRQAPGQGLEWIGVINPSSGYTEYAQKFQGRVTLTADKSTSTVYMELSSLRSEDTAVYFCANGDYYVGYWGQGTLVTVSS VL: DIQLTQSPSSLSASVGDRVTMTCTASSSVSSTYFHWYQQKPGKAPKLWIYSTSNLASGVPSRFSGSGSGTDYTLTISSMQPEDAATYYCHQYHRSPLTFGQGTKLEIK , write its reported FACS signal at 1.6 nM.
### Response 10400

### Prompt Given the binder AB S6 (antibody, V domains shown) VH: EVQLLESGGGLVQPGGSMRLSCAASGFTFSNYWMNWVRQAPGKGLEWLAQIRLKSDNYVTHYADSVKGRFTISRDDSKRTVYLQMNSLRAEDTGTYYCNDGPPSGSWGQGTLLTVSS VL: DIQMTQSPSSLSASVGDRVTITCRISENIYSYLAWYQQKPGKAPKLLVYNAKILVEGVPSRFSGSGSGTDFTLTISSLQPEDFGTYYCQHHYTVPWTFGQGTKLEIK , write its reported FACS signal at 1.6 nM.
### Response 765

### Prompt Given the binder AB S7 (antibody, V domains shown) VH: QVQLVQSGAEVKKPGASVKMSCKASGYTFTTYTIHWVRQAPGQGLEWIGFINPSSGYTEYAQKFQGRVTLTADKSTSTVYMELSSLRSEDTAVYFCANGDYYVAYWGQGTLVTVSS VL: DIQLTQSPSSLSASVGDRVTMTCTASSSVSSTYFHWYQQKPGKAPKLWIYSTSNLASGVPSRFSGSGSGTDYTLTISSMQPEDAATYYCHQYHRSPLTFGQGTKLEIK , write its reported FACS signal at 1.6 nM.
### Response 2350
